Hello, the source for this data is PubChem BioAssay (NCI), in case you need it.

Below: a set of entries, each annotated with reported growth inhibition.
assay: NCI Yeast Anticancer Drug Screen. Data for the mec2-1 strain (AID 157); conditions: S. cerevisiae mec2-1 strain, at 50.0 µM, stronger effect = higher value
The panel holds about 79,000 compounds, 15% with a hit somewhere; the sample as a whole holds those more often.
Give just the number in %; leave the unit off.

Look over these answered cases.
Quick note, growth inhibition for O=C(C[N+]1(CCc2ccccc2)CCOCC1)c1ccc(-c2ccccc2)cc1 landed at 92.5

Quick note, growth inhibition for CCN(CC)CCNc1c(O)cc(C)c2sc3ccccc3c(=O)c12 landed at 99

Continuing:
Quick note, growth inhibition for COc1ccc(C(=O)C(c2ccc(OC)cc2)C2(O)C(=O)Nc3c(C)cc(Cl)cc32)cc1 (configuration not stated) landed at 89

Quick note, growth inhibition for CC(C)=CCC(OC(=O)CC(C)C)C1=CC(=O)c2c(O)ccc(O)c2C1=O (configuration not stated) landed at 89.2

Quick note, growth inhibition for O=c1oc(-c2cccc(C(Cl)Cl)c2)ns1 landed at 99.1

Quick note, growth inhibition for CC1=C(c2ccccc2)C(=O)OC1=O landed at 2.7

Quick note, growth inhibition for COC(=O)C1=C(CS(=O)c2ccccc2[N+](=O)[O-])ON(C)C1c1ccccc1 (configuration not stated) landed at 53.1

Quick note, growth inhibition for C=C(CS(=O)(=O)c1ccccc1)[P+](c1ccccc1)(c1ccccc1)c1ccccc1 landed at 37.5

Quick note, growth inhibition for O=C(O)/C=C/C(=O)c1ccc(O)cc1 landed at 95.8

Quick note, growth inhibition for Cc1ccc2cc3ccccc3c(-c3ccccc3)c2c1 landed at 12.9

----------
Assay: NCI Yeast Anticancer Drug Screen. Data for the bub3 strain (AID 167)
Conditions: S. cerevisiae bub3 mutant strain, at 50.0 µM, stronger effect = higher value
Method: Growth inhibition of yeast strains with defined genetic alterations is measured as a screen for potential anti-cancer activity. Selected strains with alterations in DNA damage repair or cell cycle control were exposed to compounds and growth inhibition was measured relative to vehicle treated controls. The strain used in this assay is bub3
About 79,000 compounds went through this panel and 15% of them were active in at least one assay; those are over-represented in the sample as a whole.
OBSERVED PROPERTY: growth inhibition (%)
Give just the number in %; leave the unit off.

Quick note, growth inhibition for CCCCCCCCCc1cc(O)c(O)cc1CCCCCCCCC landed at 22.4

Quick note, growth inhibition for O=[N+]([O-])c1cc(CNCCO)c(O)c2ncccc12 landed at 99

Quick note, growth inhibition for COC(=O)c1c2c(cc3c1CC1(Cc4cc5c(c(C)c4C1)CCC5)C3)CCC2 (configuration not stated) landed at -13.1

Quick note, growth inhibition for Cc1c(NC(=O)/C(=N/NC(=S)N=N)C2C(=O)CC(C)(C)CC2=O)c(O)c2ccccc2c1O landed at 90.9

Quick note, growth inhibition for COc1ccc2ccc(=O)oc2c1CC=C(C)C landed at 62

Quick note, growth inhibition for CC(C)C(O)C(C)C landed at 13.7

----------
Below: a set of entries, each annotated with reported growth inhibition.
experiment: NCI Yeast Anticancer Drug Screen. Data for the rad50 strain (AID 155);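 note: 0% = growth of vehicle-only cultures of the same strain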; settings: S. cerevisiae rad50 strain growth inhibition; at 50.0 µM (retest, dose inferred, filed as 5.0); stronger effect = higher value
Compounds without any hit were thinned out: in the full panel of roughly 79,000, 15% have a hit. Calls of active or inactive are those of the source. No stated cut-off is given here; in the data, active means growth inhibition above about 70%; inactive means the rest.

Look over these answered cases.
Quick note, growth inhibition for CC(=O)Oc1c(Br)cc(Br)cc1Br landed at -4% (inactive)

Quick note, growth inhibition for CCCCCC(=O)NNc1ccccc1 landed at 89% (active)

Quick note, growth inhibition for ClC(Cl)(Cl)C(c1ccccc1)c1ccccc1 landed at 30% (inactive)

Quick note, growth inhibition for O=C(c1ccc(Cl)cc1)c1ccc(OCCCOc2ccc(C(=O)c3ccc(Cl)cc3)cc2)cc1 landed at -32% (inactive)

Quick note, growth inhibition for O=Cc1cc(-c2ccccc2)n(-c2ccccc2)c1-c1ccccc1 landed at 18% (inactive)

Quick note, growth inhibition for Cn1c(=O)[nH]c2nnc(-c3ccccc3)nc2c1=O landed at 89% (active)

Continuing:
Quick note, growth inhibition for COc1ccc(/C=C2\NC(=O)NC2=O)cc1 landed at 7% (inactive)

Quick note, growth inhibition for CC1CCC2(OC1)OC1CC3C4CCC5CC(OC6OC(COC7OC(CO)C(O)C(O)C7O)C(OC7OC(C)C(O)C(O)C7O)C(O)C6OC6OC(CO)C(O)C(O)C6O)CCC5(C)C4CCC3(C)C1C2C (configuration not stated) landed at 99% (active)

Quick note, growth inhibition for O=C(O)c1ccccc1SC(Sc1ccccc1C(=O)O)c1cccc(Cl)c1 landed at 92% (active)
